Measured values drawn from paper PMC11396129 for this set.

Test system: KM12
Assay: NCI 60 panel growth inhibition (SRB), colon cancer
Format: cell-based, human
Settings: KM12, 10 μM
Experimental: Screening of cytotoxic activity against a panel of sixty human tumor cell lines The selected compounds by NCI were evaluated for their anticancer activity in a two- stage process. […] Using the seven absorbance measurements [time zero, (Tz), control growth, (C), and test growth in the presence of drug at the five concentration levels (Ti)], the percentage growth is calculated at each of the drug concentrations levels. […] Three dose response parameters are calculated for each experimental agent. […]
Mark criterion met for reported GI% of 20% or greater; mark criterion not met for anything smaller.

Here's what some known entries look like.
{"columns": ["compound", "answer.label"],
 "data": [
  ["COc1cccc(-c2nc3ccccc3s2)c1OCC(=O)NN=C1C(=O)Nc2ccc(Cl)cc21 [Compound 9k]", "criterion met"],
  ["Cc1ccc2c(c1)C(=NNC(=O)COc1ccccc1-c1nc3ccccc3s1)C(=O)N2 [Compound 9b]", "criterion not met"],
  ["COc1ccc(-c2nc3ccccc3s2)cc1OCC(=O)NN=C1C(=O)Nc2ccc(Cl)cc21 [Compound 9q]", "criterion not met"],
  ["O=C(COc1ccccc1-c1nc2ccccc2s1)NN=C1C(=O)Nc2ccc(Br)cc21 [Compound 9f]", "criterion not met"],
  ["COc1ccc2c(c1)C(=NNC(=O)COc1ccccc1-c1nc3ccccc3s1)C(=O)N2 [Compound 9c]", "criterion not met"]
]}

Consider the additional compound presented here.
Qu. Evaluate COc1ccc2c(c1)C(=NNC(=O)COc1cc(-c3nc4ccccc4s3)ccc1OC)C(=O)N2 [Compound 9o] : GI% at minimum 20%?
Ans. criterion met
